# composite z-score listing for each entry below
experiment: probe aLefty1 binding on compound microarray – biochemical, small-molecule microarray, 635/667 nm fluorescence, primary screen (AID 1153); settings: higher = more signal;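 further: score merges spot fluorescence with signal-to-noise ratio from the scanned slide images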
Number only, please.

smiles.notation | composite z-score
COC(=O)[C@@]1(Cc2ccc(OC)cc2)[C@H]2c3cc(C(=O)N4CCCC4)n(CCN4CCOCC4)c3C[C@H]2CN1C(=O)c1ccccc1 | 2.2
C=CC[C@@]1(C(=O)NCCN2CCOCC2)N=C(c2ccc(OCCCO)cc2)O[C@@H]1c1ccccc1CN=[N+]=[N-] | 0.0193

(Q) Need composite z-score, item `C=CCCN(CC#C[C@H]1Oc2ccccc2S(=O)(=O)N2CCC[C@@H]12)S(=O)(=O)c1ccc(C)cc1`
(A) 0.0443

(Q) What do we get for `COc1ccc([Si](C)(C)[C@@H]2[C@@H](CCO)O[C@]3(C(=O)N(Cc4cccc(N5CCCCC5=O)c4)c4ccccc43)[C@H]2C)cc1` ?
(A) 0.236

###

target: Albumin (Bos taurus) (UniProt P02769); experiment: compounds binding labelled BSA control protein – biochemical, small-molecule microarray, Alexa647 label, 635/667 nm fluorescence, artefact control for SMM control protein annotation, profiling panel (AID 1118); conditions: BSA-A647 binding, fluorescence 635 nm, higher = more signal;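 further: score merges 667 nm emission intensity and signal-to-noise per printed compound spot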
Sequence (P02769 whole entry, looked up): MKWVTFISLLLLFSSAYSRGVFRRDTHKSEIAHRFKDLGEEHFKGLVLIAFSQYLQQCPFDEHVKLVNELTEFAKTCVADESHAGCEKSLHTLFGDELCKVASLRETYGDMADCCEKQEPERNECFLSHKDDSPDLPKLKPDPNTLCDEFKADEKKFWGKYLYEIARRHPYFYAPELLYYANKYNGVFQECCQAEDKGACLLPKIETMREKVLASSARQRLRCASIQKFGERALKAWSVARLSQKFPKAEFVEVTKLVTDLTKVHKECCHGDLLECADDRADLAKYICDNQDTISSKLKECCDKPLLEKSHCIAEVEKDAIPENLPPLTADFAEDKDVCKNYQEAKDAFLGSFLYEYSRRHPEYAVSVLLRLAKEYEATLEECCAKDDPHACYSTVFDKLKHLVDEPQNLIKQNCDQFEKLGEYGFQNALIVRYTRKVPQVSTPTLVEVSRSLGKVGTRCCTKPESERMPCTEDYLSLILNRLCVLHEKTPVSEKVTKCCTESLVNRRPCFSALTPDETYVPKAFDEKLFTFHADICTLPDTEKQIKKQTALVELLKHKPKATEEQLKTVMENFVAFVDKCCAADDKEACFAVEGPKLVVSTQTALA
observed.property: composite z-score

compound | composite z-score
COC(=O)[C@@]1(Cc2ccc(F)cc2)[C@H]2c3cc(C(=O)N(C)C)n(CCc4c[nH]c5ccc(OC)cc45)c3C[C@H]2CN1C(=O)c1ccccc1 | 0.655
COC(=O)[C@@]1(Cc2ccc(OC)cc2)[C@H]2c3cc(C(=O)N4CCCC4)n(CCc4ccccn4)c3C[C@H]2CN1C(=O)c1ccccc1 | 0.348
COc1c(C)cc(-c2cc3c(c(-c4ccccc4)n2)[Si](C(C)C)(C(C)C)O[C@H]3c2ccccc2)cc1C | -0.102

Okay, now this compound:
(Q) Requested field: composite z-score. Item: CN1C(=O)C2C=CC(C(O)C3=C[C@H]4C[C@@H](C3)C4(C)C)N(Nc3ccc([N+](=O)[O-])cc3[N+](=O)[O-])C2C1=O (some centres undefined)
(A) 0.909

###

experiment: small molecules captured by biotinylated probe aFSTL3 – biochemical, small-molecule microarray, fluorescence 635/667, stem cell growth factor project, primary screen (AID 1064); conditions: higher = more signal;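 further: measures binding of the biotinylated anti-FSTL3 antibody to printed compounds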
Classification field: Fulfilled = composite z-score at or over -0.3; Not fulfilled = composite z-score under -0.3.

Worked cases, answers included:
compound | qualitative.label
O=C1C2C=CC(C(O)C3CC=CCC3)N(n3cnnc3)C2C(=O)N1Cc1ccccc1 (stereo unspecified) | Fulfilled
CCCCCCCCCCC(O)C1C=CC2C(=O)N(c3ccccc3)C(=O)C2N1Nc1ccc([N+](=O)[O-])cc1 (stereo unspecified) | Not fulfilled
C=C(/C(=C/C[C@@H](OC(C)=O)c1ccc(CO)o1)c1cnc2ccccc2c1)C(C)C | Not fulfilled
CN(C)CCCCCCNC(=O)[C@@H]1C[C@@H]2C(=O)NCC(=O)N2[C@@H]1c1cccc(OCCO)c1 | Fulfilled
C=CCN1C(=O)[C@@]2(O[C@@H](CCO)[C@H]([Si](C)(C)c3ccc(OC)cc3)[C@H]2C)c2cc(NC(C)=O)ccc21 | Not fulfilled
COCCOC(=O)N1C(=O)[C@@]2(c3cc(C#Cc4ccc(OC)cc4)ccc31)[C@H](C(N)=O)[C@H]1C(=O)O[C@H](c3ccccc3)[C@H](c3ccccc3)N1[C@@H]2c1ccc(O)cc1 | Not fulfilled
O=C1OCCC=C[C@H]2OC34C=CCN(c5ccc6ccccc6c5)C(=O)[C@H]3N(CCCCCCO)C(=O)[C@@H]4C12 (stereo partly specified) | Fulfilled
NC(=O)[C@@]1(CCS(=O)(=O)c2ccccc2)N=C(c2ccc(OCCCO)cc2)O[C@H]1c1ccccc1 | Fulfilled

(Q) I'd appreciate it if you could say whether `C#C[C@H](O[Si](C#CCCCCCC)(C(C)C)C(C)C)c1ccccc1` has composite z-score at least equal to -0.3.
(A) Not fulfilled

(Q) What about `COCCCNC(=O)[C@@]1(C)c2ccccc2C(=O)N(Cc2ccccc2)[C@H]1c1ccc(CO)cc1` ?
(A) Fulfilled

(Q) Lookup `CN(C)CCCN1C(=O)[C@@]2(c3ccc([N+](=O)[O-])cc3)CC(=O)N(C3CCCCC3)[C@@H]2c2ccc(CO)cc21`
(A) Not fulfilled

(Q) Thanks! And `COC(=O)[C@@]1(Cc2ccc(OC)cc2)[C@H]2c3cc(C(=O)N4CCCC4)n(CCc4ccccn4)c3C[C@H]2CN1C(=O)c1ccccc1` ?
(A) Fulfilled

(Q) Next compound up: [N-]=[N+]=NCc1ccccc1C[C@]1(C(=O)NCC(O)CO)COC(c2ccc(OCCCO)cc2)=N1 (stereo partly specified)
(A) Fulfilled

###

test system: Plasmodium falciparum Sir2 (PF13_0152, Sir2A); assay: Plasmodium falciparum Sir2A binding compounds – biochemical, small-molecule microarray, 635 nm fluorescence, primary screen (AID 1098); conditions: fluorescence 635 nm, higher = more signal;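 further: score merges spot fluorescence intensity with its signal-to-noise ratio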
observed.property: composite z-score
Just the number, please.

Here are 4 molecules together with their reported answers.
molecule | number
C[C@H]1C2[C@H](Cc3ccccc3)NC(=O)[C@]23C(=O)N[C@H](Cc2ccccc2)C(=O)N[C@H](Cc2ccccc2)C(=O)NC/C=C/CCC/C=C/C3[C@@H]2O[C@]12C (stereo partly drawn) | 1.17
C=C(C(=O)CC[C@@H](OC(C)=O)c1ccc(OCCO)cc1)C(C)C | 0.167
CN1C(=O)C2C=CC(C(O)C=Cc3ccc([N+](=O)[O-])cc3)N(N3CCCCC3)C2C1=O (stereo not drawn) | 1.38
CC[C@@H]1C=C(C(=O)O)[C@H](c2ccc(C(C)C)cc2)N1S(=O)(=O)c1ccc(C)cc1 | 1.25

(Q) composite z-score for `COCCOC(=O)N1C(=O)[C@@]2(c3cc(C#CC4=CCCCC4)ccc31)[C@H](c1ccc(OCCO)cc1)N1[C@H](c3ccccc3)[C@H](c3ccccc3)OC(=O)[C@H]1[C@@H]2C(=O)Nc1nc2ccccc2s1` ?
(A) 0.581

(Q) Check `O=c1cccc(-c2ccc3ccccc3c2)o1` too.
(A) -0.271

(Q) Now the molecule `[N-]=[N+]=NCc1ccccc1[C@@H]1OC(c2ccc(OCCCO)cc2)=N[C@]1(Cc1ccccc1N=[N+]=[N-])C(N)=O`
(A) 1.48

(Q) Now this one: `CCCC[C@H]1C[C@@H]1[C@@H]1N(P(=O)(c2ccccc2)c2ccccc2)[C@](CO)(c2ccccc2)CC12CC2`
(A) 1.09

(Q) Another molecule to look at: CC1CC/C=C\[C@H]2OC34C=CCN(Cn5nnc6ccccc65)C(=O)[C@H]3N(CCCO)C(=O)[C@@H]4C2C(=O)O1 (stereo partly drawn)
(A) 1.14

(Q) Likewise for `O=C(NCc1ccccc1)[C@@H]1c2ccccc2C(=O)N(C2CCCCC2)[C@H]1c1ccc(CO)cc1` ?
(A) 0.88

(Q) Same lookup for `[N-]=[N+]=NCc1ccccc1[C@H]1OC(c2ccc(OCCCO)cc2)=N[C@@]1(Cc1ccccc1)C(=O)O` , please.
(A) 0.208

(Q) What do you have for `COCCOC(=O)N1C(=O)[C@@]2(c3ccccc31)[C@H](c1ccc(O)cc1)N1[C@H](c3ccccc3)[C@H](c3ccccc3)OC(=O)[C@H]1[C@@H]2C(N)=O` ?
(A) 0.394

(Q) Request: `C=CCNC(=O)[C@@H]1[C@H]2C(=O)O[C@H](c3ccccc3)[C@H](c3ccccc3)N2[C@H](c2ccccc2OCCO)[C@@]12C(=O)N(C(=O)OCCOC)c1ccc(C#CCC(C(=O)OC)C(=O)OC)cc12`
(A) 1.89

(Q) # repeat for `C[N+](C)(C)CCCC[C@@H]1NC(=O)[C@H]2C[C@@H](C(=O)O)[C@@H](c3cccc(OCCO)c3)N2C1=O`
(A) 2.08

(Q) How about `Cc1ccc(N2C(=O)c3ccccc3[C@](C)(C(=O)NCCN3CCOCC3)[C@@H]2c2ccc(CO)cc2)nc1` ?
(A) 0.0614

(Q) Now consider `CC(C)(C)OC(=O)CC[C@@]1(C(=O)N2CCOCC2)N=C(c2ccc(OCCCO)cc2)O[C@@H]1c1ccccc1N=[N+]=[N-]` and answer again.
(A) 1.3

(Q) What about this molecule? `COC(=O)[C@@]1(Cc2ccc(OC)cc2)[C@H]2c3cc(C(=O)N4CCCC4)n(CCc4ccccn4)c3C[C@H]2CN1C(=O)c1ccccc1`
(A) 1.18

(Q) Would you kindly repeat that for `CCCC[C@H]1OB(O)C[C@H]2C1=C(C)Cn1c(=O)n(-c3ccccc3)c(=O)n12` ?
(A) 0.161

(Q) Same again, this time with `COc1ccc([Si](C)(C)[C@@H]2[C@@H](CCO)O[C@]3(C(=O)N(Cc4ccccc4)c4ccc(N(C=O)c5ccccc5)cc43)[C@H]2C)cc1`
(A) 0.622
